Experiment: Pharmacokinetics in Göttingen minipigs after intravenous and subcutaneous injection (Example 12)
Type: in vivo
Conditions: Göttingen, plasma, 0.5 umol/kg; iv, 0.5 μmol/kg, minipig; read-out: maximum concentrations (Cmax), mean
Residues, ends and D or L forms follow the SMILES beside them. *: point of attachment. Stearoyl = CCCCCCCCCCCCCCCCCC(=O)*
recorded endpoint: Cmax (µM)
Numbers only, in µM.

May I ask what Cmax has been recorded for CCCCCCCCCCCCCCCCCC(=O)N[C@@H](Cc1c[nH]cn1)C(=O)N[C@@H](CC(C)C)C(=O)NCC(=O)N[C@@H](CC(C)C)C(=O)N[C@@H](CCC(=O)O)C(=O)N[C@@H](CCC(=O)O)C(=O)N1CCC[C@H]1C(=O)N[C@@H](CCCCN)C(=O)N[C@@H](CCCCN)C(=O)O [SEQ ID NO: 73, C18:0-HLGLEEPKK] (Stearoyl-HLGLEEPKK-OH; C-terminus assumed) ?
6.27
